test system: P388/0 tumor cells; experiment: Lymphocytic Leukemia P388/0 Test; format: in vivo, CD2-F₁ mice; details: CD2-F₁ mice, intraperitoneally on days 1, 5 and 9
Listed here are compounds together with their documented LD₂₀.
Numeric answer only, unit mg/kg assumed.

Some compounds with recorded LD₂₀:
compound	LD₂₀, mg/kg
CC(CO)(CO)NCc1cc2oc3ccccc3c2c2ccccc12	10
CC(CO)(CO)NCc1cc2c3ccccc3oc2c2ccccc12	100
CC(CO)(CO)NCc1cccc2cc3c(cc12)oc1ccccc13 [Example 6B, hydrate]	35
CC(CO)(CO)NCc1cc2c3ccccc3sc2c2ccccc12	35

Fill in: LD₂₀ of CC(CO)(CO)NCc1c2ccccc2cc2c1oc1ccccc12 is ___
125
